- assayed system: ZBTB7A (Homo sapiens, UniProt O95365+Q96SW2)
- Construct: HUDEP-2 cells engineered to express a HiBiT tag in either the WIZ (Widely interspaced zinc finger) or ZBTB7A
- Sequence (O95365 whole entry): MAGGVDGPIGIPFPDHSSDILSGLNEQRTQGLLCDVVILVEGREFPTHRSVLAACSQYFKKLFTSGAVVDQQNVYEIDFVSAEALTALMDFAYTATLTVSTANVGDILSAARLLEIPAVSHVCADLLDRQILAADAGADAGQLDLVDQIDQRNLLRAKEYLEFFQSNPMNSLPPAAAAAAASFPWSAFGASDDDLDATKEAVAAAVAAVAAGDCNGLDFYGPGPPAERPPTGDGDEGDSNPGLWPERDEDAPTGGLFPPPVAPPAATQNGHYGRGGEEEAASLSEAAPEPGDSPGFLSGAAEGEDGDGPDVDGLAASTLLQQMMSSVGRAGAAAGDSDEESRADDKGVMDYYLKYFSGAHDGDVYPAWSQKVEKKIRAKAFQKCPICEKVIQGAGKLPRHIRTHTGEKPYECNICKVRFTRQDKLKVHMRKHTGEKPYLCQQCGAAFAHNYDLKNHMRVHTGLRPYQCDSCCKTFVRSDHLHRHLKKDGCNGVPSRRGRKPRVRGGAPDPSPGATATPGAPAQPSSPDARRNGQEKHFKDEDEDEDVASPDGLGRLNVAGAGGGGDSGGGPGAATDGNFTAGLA
- Sequence (Q96SW2 whole entry): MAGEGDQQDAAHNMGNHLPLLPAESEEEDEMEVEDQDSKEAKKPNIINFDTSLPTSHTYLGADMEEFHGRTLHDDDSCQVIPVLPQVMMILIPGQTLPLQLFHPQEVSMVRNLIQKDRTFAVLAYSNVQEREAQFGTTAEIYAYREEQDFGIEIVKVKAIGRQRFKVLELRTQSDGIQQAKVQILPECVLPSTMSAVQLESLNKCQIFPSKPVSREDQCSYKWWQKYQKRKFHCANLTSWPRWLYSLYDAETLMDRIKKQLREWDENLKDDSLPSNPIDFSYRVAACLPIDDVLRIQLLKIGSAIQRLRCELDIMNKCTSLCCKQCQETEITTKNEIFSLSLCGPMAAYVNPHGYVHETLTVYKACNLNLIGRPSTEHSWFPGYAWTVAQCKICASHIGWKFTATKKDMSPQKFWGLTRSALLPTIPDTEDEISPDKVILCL
- Sequence (Q16531 whole entry partner): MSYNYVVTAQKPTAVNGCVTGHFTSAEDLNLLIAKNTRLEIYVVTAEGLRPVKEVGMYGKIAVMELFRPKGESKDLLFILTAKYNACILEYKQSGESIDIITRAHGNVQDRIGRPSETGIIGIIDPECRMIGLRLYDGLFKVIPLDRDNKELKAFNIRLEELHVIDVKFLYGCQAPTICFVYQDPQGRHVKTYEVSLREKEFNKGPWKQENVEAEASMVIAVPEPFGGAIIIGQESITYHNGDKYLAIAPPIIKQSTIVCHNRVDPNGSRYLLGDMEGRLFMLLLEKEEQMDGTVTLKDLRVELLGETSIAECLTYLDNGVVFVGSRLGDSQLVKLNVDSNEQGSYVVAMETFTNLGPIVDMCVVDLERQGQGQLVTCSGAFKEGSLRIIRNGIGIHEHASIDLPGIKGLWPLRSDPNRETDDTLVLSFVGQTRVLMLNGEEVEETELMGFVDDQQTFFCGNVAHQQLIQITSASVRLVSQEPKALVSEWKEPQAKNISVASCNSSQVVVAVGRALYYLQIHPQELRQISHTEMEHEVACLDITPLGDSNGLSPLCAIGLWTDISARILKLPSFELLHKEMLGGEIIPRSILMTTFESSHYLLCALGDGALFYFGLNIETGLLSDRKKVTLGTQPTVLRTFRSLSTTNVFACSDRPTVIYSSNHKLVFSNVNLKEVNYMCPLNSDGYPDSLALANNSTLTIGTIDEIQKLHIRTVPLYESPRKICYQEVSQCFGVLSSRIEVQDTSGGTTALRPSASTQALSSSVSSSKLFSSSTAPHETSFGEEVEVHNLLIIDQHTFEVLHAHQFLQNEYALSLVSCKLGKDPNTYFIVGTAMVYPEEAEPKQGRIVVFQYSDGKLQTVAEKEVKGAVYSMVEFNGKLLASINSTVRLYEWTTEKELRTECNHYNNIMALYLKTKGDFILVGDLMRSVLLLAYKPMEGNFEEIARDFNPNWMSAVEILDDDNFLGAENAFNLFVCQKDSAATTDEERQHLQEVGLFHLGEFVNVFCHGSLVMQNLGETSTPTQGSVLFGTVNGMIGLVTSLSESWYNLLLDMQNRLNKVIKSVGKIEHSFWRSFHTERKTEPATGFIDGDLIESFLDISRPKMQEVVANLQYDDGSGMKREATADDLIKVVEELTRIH
- measurement protocol: HUDEP-2 ZBTB7A HiBiT degradation assay
- Format: cell-based
- assay conditions: HiBiT-tagged ZBTB7A degradation in HUDEP-2 cells, 24 hours of treatment; read-out: ZBTB7A EC50
readout type: DC50 (µM)

Examples with answers:
Exercise: # query: DC50 of entry CN1C(=O)CCc2cc(C3CCN(C(=O)C4CC4)CC3)c(Nc3cccc4c3C(=O)N(C3CCC(=O)NC3=O)C4=O)cc21 (stereo not drawn) [Compound 93]
Solution: 0.015

Exercise: # query: DC50 of entry Cc1cc(-c2c(Nc3cccc4c3C(=O)N(C3CCC(=O)NC3=O)C4=O)cc3c(c2F)OCC(=O)N3C)ccn1 (stereo not drawn) [Compound 80]
Solution: 0.038

Exercise: # query: DC50 of entry CCO[C@H]1CC[C@H](c2cc3c(cc2Nc2cccc4c2C(=O)N([C@@H]2CCC(=O)NC2=O)C4=O)N(C)C(=O)[C@@H](C)O3)CC1 [Compound 54]
Solution: 0.014

P = Cc1cncc(-c2c(Nc3cccc4c3C(=O)N([C@H]3CCC(=O)NC3=O)C4=O)cc3c(c2F)OCC(=O)N3C)c1 [Compound 69]
Q = CN1C(=O)COc2cc([C@H]3CC[C@H](C#N)CC3)c(Nc3cccc4c3C(=O)N(C3CCC(=O)NC3=O)C4=O)cc21 (stereo partly drawn) [Compound 53]
R = COc1cc(-c2cc3c(cc2Nc2cccc4c2C(=O)N([C@H]2CCC(=O)NC2=O)C4=O)N(C)C(=O)[C@@H](C)O3)c(F)cn1 [Compound 30]
Exercise: Please list these molecules in decreasing order of DC50. I'd appreciate it if you listed the labels in the requested order.
Solution: P, R, Q

---

- assayed system: ZBTB7A (Homo sapiens, UniProt O95365+Q96SW2)
- Construct: HUDEP-2 cells engineered to express a HiBiT tag in either the WIZ (Widely interspaced zinc finger) or ZBTB7A
- measurement protocol: HUDEP-2 ZBTB7A HiBiT degradation assay
- Type: cell-based
- assay conditions: HiBiT-tagged ZBTB7A degradation in HUDEP-2 cells, 24 hours of treatment; read-out: ZBTB7A EC50
readout type: DC50 (nM)

Examples with answers:
Exercise: Recall the recorded DC50 for CO[C@H]1CC[C@H](c2cc3c(cc2Nc2cccc4c2C(=O)N([C@H]2CCC(=O)NC2=O)C4=O)N(C)C(=O)CC3)CC1 with ZBTB7A (Homo sapiens, UniProt O95365+Q96SW2) and state it.
Solution: 4

Exercise: Recall the recorded DC50 for Cc1cc(-c2cc3c(cc2Nc2cccc4c2C(=O)N(C2CCC(=O)NC2=O)C4=O)N(C)C(=O)C(C)(C)C3)ccn1 (stereo not shown) with ZBTB7A (Homo sapiens, UniProt O95365+Q96SW2) and state it.
Solution: 43

Exercise: Recall the recorded DC50 for CN(C)c1cc(-c2cc3c(cc2Nc2cccc4c2C(=O)N(C2CCC(=O)NC2=O)C4=O)N(C)C(=O)CO3)ccn1 (stereo not shown) with ZBTB7A (Homo sapiens, UniProt O95365+Q96SW2) and state it.
Solution: 22

Exercise: Recall the recorded DC50 for C=CN1C(=O)CCc2cc(-c3ccnc(C)c3)c(Nc3cccc4c3C(=O)N(C3CCC(=O)NC3=O)C4=O)cc21 (stereo not shown) with ZBTB7A (Homo sapiens, UniProt O95365+Q96SW2) and state it.
Solution: 28

Exercise: Recall the recorded DC50 for Cc1cc(-c2cc3c(cc2Nc2cccc4c2C(=O)N([C@H]2CCC(=O)NC2=O)C4=O)N(C)C(=O)CO3)c(F)cn1 [Compound 61] with ZBTB7A (Homo sapiens, UniProt O95365+Q96SW2) and state it.
Solution: 11

a = CC[C@@H]1Oc2cc(-c3ccnc(C)c3)c(Nc3cccc4c3C(=O)N([C@H]3CCC(=O)NC3=O)C4=O)cc2N(C)C1=O
b = CCN1C(=O)COc2cc(-c3cc(C)nc(C)c3)c(Nc3cccc4c3C(=O)N(C3CCC(=O)NC3=O)C4=O)cc21 (stereo not shown)
Exercise: Lab log: flag the item ( a or b ) with the smaller DC50 figure. Lab note: record the label of whichever item you select.
Solution: a

---

- assayed system: ZBTB7A (Homo sapiens, UniProt O95365+Q96SW2)
- Construct: HUDEP-2 cells engineered to express a HiBiT tag in either the WIZ (Widely interspaced zinc finger) or ZBTB7A
- measurement protocol: HUDEP-2 ZBTB7A HiBiT degradation assay
- Format: cell-based
- assay conditions: HiBiT-tagged ZBTB7A degradation in HUDEP-2 cells, 24 hours of treatment; read-out: ZBTB7A EC50
readout type: DC50 (nM)

Examples with answers:
Exercise: # query: DC50 of entry Cc1cc(-c2cc3c(cc2Nc2cccc4c2C(=O)N([C@H]2CCC(=O)NC2=O)C4=O)N(C)C(=O)CO3)c(F)cn1 [Compound 7]
Solution: 9

Exercise: # query: DC50 of entry Cc1cc(-c2cc3c(cc2Nc2cccc4c2C(=O)N([C@H]2CCC(=O)NC2=O)C4=O)N(C)C(=O)O[C@@H]3C)ccn1
Solution: 12

Exercise: # query: DC50 of entry Cc1cc(-c2cc3c(cc2Nc2cccc4c2C(=O)N(C2CCC(=O)NC2=O)C4=O)N(C)C(=S)CC3)ccn1 (stereo not shown)
Solution: 21

Exercise: # query: DC50 of entry CNc1cc(-c2cc3c(cc2Nc2cccc4c2C(=O)N(C2CCC(=O)NC2=O)C4=O)N(C)C(=O)CO3)ccn1 (stereo not shown)
Solution: 17

Exercise: # query: DC50 of entry CNc1cc(-c2cc3c(cc2Nc2cccc4c2C(=O)N(C2CCC(=O)NC2=O)C4=O)N(C)C(=O)CO3)c(F)cn1 (stereo not shown)
Solution: 11

a = Cc1cc(-c2cc3c(cc2Nc2cccc4c2C(=O)N(C2CCC(=O)NC2=O)C4=O)N(C)CCO3)ccn1 (stereo not shown)
b = Cc1cc(-c2cc3c(cc2Nc2cccc4c2C(=O)N([C@H]2CCC(=O)NC2=O)C4=O)N(C)C(=O)CO3)ccn1
Exercise: Lab note: check whether a or b shows the higher recorded DC50. Lab note: record the label of whichever item you select.
Solution: a
(a: 18 nM, b: 11 nM)

I = Cc1cncc(-c2cc3c(cc2Nc2cccc4c2C(=O)N([C@H]2CCC(=O)NC2=O)C4=O)N(C)C(=O)[C@@H](C)O3)c1
II = CCO[C@H]1CC[C@H](c2cc3c(cc2Nc2cccc4c2C(=O)N([C@H]2CCC(=O)NC2=O)C4=O)N(C)C(=O)CO3)CC1
Exercise: Lab note: check whether I or II shows the higher recorded DC50. Lab note: record the label of whichever item you select.
Solution: I

---

- assayed system: WIZ (Homo sapiens, UniProt O95785+Q96SW2)
- Construct: HUDEP-2 cells engineered to express a HiBiT tag in either the WIZ (Widely interspaced zinc finger) or ZBTB7A
- Sequence (O95785 whole entry): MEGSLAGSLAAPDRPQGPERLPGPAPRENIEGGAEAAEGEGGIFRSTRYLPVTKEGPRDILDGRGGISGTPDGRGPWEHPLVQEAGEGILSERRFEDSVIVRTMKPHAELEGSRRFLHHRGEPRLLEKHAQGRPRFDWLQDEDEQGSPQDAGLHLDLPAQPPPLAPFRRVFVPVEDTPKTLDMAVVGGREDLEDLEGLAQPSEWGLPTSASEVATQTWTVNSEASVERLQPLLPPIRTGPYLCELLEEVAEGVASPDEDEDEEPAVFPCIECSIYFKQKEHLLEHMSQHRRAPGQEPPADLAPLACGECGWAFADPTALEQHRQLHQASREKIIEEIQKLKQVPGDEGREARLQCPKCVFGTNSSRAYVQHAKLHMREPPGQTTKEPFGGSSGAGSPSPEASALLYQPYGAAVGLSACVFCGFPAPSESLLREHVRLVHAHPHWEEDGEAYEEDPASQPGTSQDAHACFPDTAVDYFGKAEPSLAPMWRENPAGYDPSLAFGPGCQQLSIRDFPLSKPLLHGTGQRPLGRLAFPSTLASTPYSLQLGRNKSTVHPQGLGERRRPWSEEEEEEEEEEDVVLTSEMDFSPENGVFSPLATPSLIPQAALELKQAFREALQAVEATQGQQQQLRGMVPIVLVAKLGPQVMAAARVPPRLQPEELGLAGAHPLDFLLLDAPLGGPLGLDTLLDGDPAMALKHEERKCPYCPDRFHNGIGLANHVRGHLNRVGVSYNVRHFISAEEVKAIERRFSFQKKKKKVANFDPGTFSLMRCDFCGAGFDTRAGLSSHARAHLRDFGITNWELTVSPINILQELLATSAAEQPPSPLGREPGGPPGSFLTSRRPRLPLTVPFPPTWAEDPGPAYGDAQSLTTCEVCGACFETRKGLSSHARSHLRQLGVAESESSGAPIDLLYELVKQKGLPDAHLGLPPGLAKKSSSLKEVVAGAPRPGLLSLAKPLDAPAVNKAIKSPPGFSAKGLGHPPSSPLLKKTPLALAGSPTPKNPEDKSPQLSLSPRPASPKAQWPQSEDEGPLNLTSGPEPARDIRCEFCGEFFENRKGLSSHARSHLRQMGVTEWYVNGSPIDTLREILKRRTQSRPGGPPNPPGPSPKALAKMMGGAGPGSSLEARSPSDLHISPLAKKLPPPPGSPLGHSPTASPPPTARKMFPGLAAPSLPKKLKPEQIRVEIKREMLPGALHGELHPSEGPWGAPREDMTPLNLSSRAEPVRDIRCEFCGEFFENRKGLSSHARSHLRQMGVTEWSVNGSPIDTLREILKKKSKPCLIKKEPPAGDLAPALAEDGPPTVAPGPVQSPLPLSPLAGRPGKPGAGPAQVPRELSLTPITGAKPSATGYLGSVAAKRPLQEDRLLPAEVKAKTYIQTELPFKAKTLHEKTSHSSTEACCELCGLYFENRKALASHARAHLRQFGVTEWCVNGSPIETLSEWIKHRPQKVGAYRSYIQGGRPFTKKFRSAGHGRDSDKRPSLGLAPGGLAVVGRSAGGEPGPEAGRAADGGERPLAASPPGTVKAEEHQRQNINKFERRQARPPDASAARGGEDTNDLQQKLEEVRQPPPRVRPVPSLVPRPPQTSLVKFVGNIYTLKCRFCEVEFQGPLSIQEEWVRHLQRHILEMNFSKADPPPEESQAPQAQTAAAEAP
- Sequence (Q96SW2 whole entry): as the sequence (Q96SW2 whole entry) above
- Sequence (Q16531 whole entry partner): as the sequence (Q16531 whole entry partner) above
- measurement protocol: HUDEP-2 WIZ HiBiT degradation assay
- Type: cell-based
- assay conditions: HiBiT-tagged WIZ degradation in HUDEP-2 cells, 24 hours of treatment; read-out: WIZ EC50
readout type: DC50 (nM)

Examples with answers:
Exercise: # query: DC50 of entry Cc1cncc(-c2cc3c(cc2Nc2cccc4c2C(=O)N([C@H]2CCC(=O)NC2=O)C4=O)N(C)C(=O)[C@H](C)O3)c1
Solution: 15

Exercise: # query: DC50 of entry CO[C@H]1CC[C@H](c2cc3c(cc2Nc2cccc4c2C(=O)N([C@H]2CCC(=O)NC2=O)C4=O)N(C)C(=O)CC3)CC1
Solution: 4

I = Cc1cc(-c2c(Nc3cccc4c3C(=O)N([C@H]3CCC(=O)NC3=O)C4=O)cc3c(c2F)OCC(=O)N3C)c(F)cn1
II = Cc1cc(-c2cc3c(cc2Nc2cccc4c2C(=O)N([C@H]2CCC(=O)NC2=O)C4=O)N(C)C(=O)[C@@H](C)O3)ccn1
Exercise: Lab note: check whether I or II shows the higher recorded DC50. Lab note: record the label of whichever item you select.
Solution: I

1 = CCN1C(=O)COc2cc(-c3ccnc(C)c3)c(Nc3cccc4c3C(=O)N([C@H]3CCC(=O)NC3=O)C4=O)cc21
2 = CN1C(=O)CCc2cc(C3CCN(C(=O)C4CC4)CC3)c(Nc3cccc4c3C(=O)N(C3CCC(=O)NC3=O)C4=O)cc21 (stereo not drawn)
Exercise: Lab log: flag the item ( 1 or 2 ) with the smaller DC50 figure. Lab note: record the label of whichever item you select.
Solution: 2
(2: 4 nM, 1: 18 nM)

These measurements were taken from patent US20250333407A1.
